- measured-on: Fibroblast growth factor 2 (Homo sapiens)
- measurement-protocol: FGF2 binders on small-molecule microarrays, primary screen, biochemical, small-molecule microarray, 635/667 nm fluorescence (AID 1133)
- measurement-setup: small-molecule microarray binding, FGF2, fluorescence 635/667; higher = more signal
measured-attribute: composite z-score

Measured composite z-score, CC(C)C(=C=CC[C@H](O)c1ccc(OCCO)cc1)C[C@H](O)c1ccccn1 : -0.139

Just so you know, measured composite z-score for C=CC[C@]1(C(=O)O)COC(c2ccc(OCCCO)cc2)=N1 came out at -0.105

Record summary for CCCCCCc1nc(-c2cc(C)c(OC)c(C)c2)c(C)c2c1[Si](C(C)C)(C(C)C)OC2 : reported composite z-score = -0.18

Briefly, composite z-score measured for COC(=O)[C@@]1(Cc2ccccc2)[C@@H]2C(=CC(=O)[C@H]2CC(=O)C(=O)N(C)C)CN1C(=O)c1ccccc1 : -0.147

All values here come from PubChem BioAssay.
